This section presents binders with their documented Kd values.
Target: p85α cSH2 (614-720) (human, UniProt P27986 614-720)
Sequence (P27986 614-720): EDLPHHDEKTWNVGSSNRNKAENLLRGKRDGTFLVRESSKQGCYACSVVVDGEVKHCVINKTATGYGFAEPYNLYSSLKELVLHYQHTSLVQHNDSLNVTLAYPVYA
Experiment: FP
Where no end group is shown, it is not given here. [ ]: non-standard residue; d: D form. The star is where a group is joined. 5FAM = O=C1OC2(c3ccc(O)cc3Oc3cc(O)ccc32)c2ccc(C(=O)*)cc21; pY = N[C@@H](Cc1ccc(OP(=O)(O)O)cc1)C(=O)O
Answer in nM, number only, no unit symbol.

binder: 5FAM-TEDQ[pY]SLMEDE [p85β pY607 peptide, [5-FAM]-TEDQ-[pY]-SLMEDE]
Kd [nM]: 656
//
binder: 5FAM-TEDQ[pY]SLVEDE [p85α pY607 peptide, [5-FAM]-TEDQ-[pY]-SLVEDE]
Kd [nM]: 84000

Query: Dear colleague, I am looking for the recorded Kd of the following binder: 5FAM-SD[pY]MNMTP [CD28 peptide, [5-FAM]-SD-[pY]-MNMTP]
Response: 43
